test system: Escherichia coli TOP10; experiment: shrunken log2 fold change of peptide-encoding DNA abundance (4.5 h post-induction vs induction); higher = less antimicrobial activity (less host growth inhibition); settings: time post-induction: 4.5 h; library: site-saturation at positions 5, 18, 19, 20
Below, each of the sequences is paired with its reported shrunken log2 fold change value.
Keep the answer to the number alone.

| Polymer Sequence | shrunken log2 fold change |
| --- | --- |
| RRIRPRPPRLPRPRPRPISTPRP | -0.324 |
| RRIRMRPPRLPRPRPRPGGFPRP | 1.06 |
| RRIRIRPPRLPRPRPRPHPEPRP | -0.023 |
| RRIRWRPPRLPRPRPRPCVAPRP | 0.321 |
| RRIRVRPPRLPRPRPRPLGDPRP | -0.125 |

Lookup result for RRIRRRPPRLPRPRPRPYQAPRP ; measured shrunken log2 fold change: -0.303

Field shrunken log2 fold change (entry RRIRHRPPRLPRPRPRPCLEPRP ) reads -0.0502

// shrunken log2 fold change lookup, sequence = RRIRIRPPRLPRPRPRPVAVPRP , result: -0.104

###

tested on: Escherichia coli TOP10; assay: shrunken log2 fold change of peptide-encoding DNA abundance (4.5 h post-induction vs induction); higher = less antimicrobial activity (less host growth inhibition); conditions: time post-induction: 4.5 h; library: site-saturation at positions 5, 18, 19, 20
Below, each of the sequences is paired with its reported shrunken log2 fold change value.
Keep it simple and answer with nothing but the number.

Reference set, count: 2
| Polymer Sequence | shrunken log2 fold change |
| --- | --- |
| RRIRGRPPRLPRPRPRPWMAPRP | 0.439 |
| RRIRSRPPRLPRPRPRPTWQPRP | 0.0157 |

Entry RRIRRRPPRLPRPRPRPLNQPRP , tested on Escherichia coli TOP10, has a reported shrunken log2 fold change of 0.0755

RRIRRRPPRLPRPRPRPRDAPRP on Escherichia coli TOP10 gives shrunken log2 fold change = 0.736

###

Each record here notes measured shrunken log2 fold change.
tested on: Escherichia coli TOP10; assay: shrunken log2 fold change of peptide-encoding DNA abundance (4.5 h post-induction vs induction); higher = less antimicrobial activity (less host growth inhibition); conditions: time post-induction: 4.5 h; library: site-saturation at positions 5, 18, 19, 20;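 also: peptides expressed intracellularly from a pBAD plasmid library in pooled LB shake-flask culture, induced with 0.3% L-arabinose, DNA abundance read by NGS, three biological replicates, DESeq2 with apeglm shrinkage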

Recorded shrunken log2 fold change, per entry:
| Polymer Sequence | Endpoint Label | Observed Value |
| --- | --- | --- |
| RRIRIRPPRLPRPRPRPWLVPRP | shrunken log2 fold change | -0.038 |
| RRIRIRPPRLPRPRPRPHVWPRP | shrunken log2 fold change | -0.287 |
| RRIRWRPPRLPRPRPRPWRNPRP | shrunken log2 fold change | 0.0636 |
| RRIRSRPPRLPRPRPRPKLHPRP | shrunken log2 fold change | -0.0772 |

Given item RRIRARPPRLPRPRPRPGPFPRP , the value recorded as its shrunken log2 fold change is 0.231

Entry RRIRARPPRLPRPRPRPWFAPRP , shrunken log2 fold change reported as 0.212

The reported value for RRIRCRPPRLPRPRPRPVSQPRP in terms of shrunken log2 fold change is 0.201

shrunken log2 fold change recorded for this sequence, RRIRHRPPRLPRPRPRPPESPRP , is 0.211

Value of shrunken log2 fold change reported for the sequence RRIRHRPPRLPRPRPRPAFDPRP is -0.00345

The sequence RRIRPRPPRLPRPRPRPGWMPRP showed shrunken log2 fold change equal to -0.0745

Entry under test: RRIRIRPPRLPRPRPRPTFWPRP . Its shrunken log2 fold change was 0.407
